For each entry below, report its EC50 value.
- target: human LILRB4 (human, UniProt Q8NHJ6 22-448)
- Sequence (Q8NHJ6 22-448): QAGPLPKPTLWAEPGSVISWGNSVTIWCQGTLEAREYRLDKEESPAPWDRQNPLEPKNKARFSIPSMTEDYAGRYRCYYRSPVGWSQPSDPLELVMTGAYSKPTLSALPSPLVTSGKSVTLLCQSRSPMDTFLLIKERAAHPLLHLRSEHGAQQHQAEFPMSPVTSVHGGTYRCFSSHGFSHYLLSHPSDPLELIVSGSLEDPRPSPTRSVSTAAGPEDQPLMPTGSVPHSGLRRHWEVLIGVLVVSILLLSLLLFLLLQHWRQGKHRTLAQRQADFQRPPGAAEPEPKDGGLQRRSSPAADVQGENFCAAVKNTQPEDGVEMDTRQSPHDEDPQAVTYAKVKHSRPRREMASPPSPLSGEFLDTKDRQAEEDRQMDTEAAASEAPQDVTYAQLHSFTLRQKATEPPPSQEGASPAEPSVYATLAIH
- method.notes: ELISA; panel B

// input: 3 binders below; output: EC50 for each
1. IO-202 (antibody, V domains shown) VH: EVQLLESGGGLVQPGGSLRLSCAASGIDFSNHYYMYWVRQAPGKGLEWIGSIFSGDSASTYYADSAKGRFTISRDNSKNTLYLQMNSLRAEDTAVYYCARGMSTNDWASDLWGQGTLVTVSS VL: DIQMTQSPSSLSASVGDRVTITCQASESINSIYLAWYQQKPGKAPKLLIYRASTLASGVPSRFSGSGSGTDFTLTISSLQPEDFATYYCQQSYDWGDVENTFGGGTKVEIK
2. h8-B3-F6-H8 (antibody, V domains shown) VH: EVQLVESGGGLVQPGGSLRLSCAASGFDFSRYWMSWVRQAPGKGLVWIGEINPESSAINYAPSLKDRFTISRDNAKNTLYLQMNSLRAEDTAVYYCATSMTMDYWGQGTLVTVSS VL: DIQMTQSPSSLSASVGDRVTITCKASQDIKSYLSWYQQKPGKAPKTLIYYATSLAGGVPSRFSGSGSGTDYTLTISSLQPEDFATYYCLQHGESPYTFGGGTKLEIK
3. NGM831 (antibody, V domains shown) VH: EVQLQQSGPEVKPGASVKISCKASGYTFTDYNMDWVKQSHGKSEWIGYIYPSNGGTGYNQKFKSKATLTVDKSSNTAYMELHSLTSEDSAVYYCARVPYYDYLYYYAMDYWGQGTSVTVSS VL: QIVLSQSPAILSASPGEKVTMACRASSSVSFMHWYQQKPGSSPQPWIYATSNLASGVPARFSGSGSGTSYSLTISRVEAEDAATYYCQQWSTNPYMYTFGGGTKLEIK

Result ::
0.0141 nM
0.0286 nM
0.0265 nM

Lab note: measured EC50 of ch8-B3-F6-H8 (antibody, V domains shown) VH: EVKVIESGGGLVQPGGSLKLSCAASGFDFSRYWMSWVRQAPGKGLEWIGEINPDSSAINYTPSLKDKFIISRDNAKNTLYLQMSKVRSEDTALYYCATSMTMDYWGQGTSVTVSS VL: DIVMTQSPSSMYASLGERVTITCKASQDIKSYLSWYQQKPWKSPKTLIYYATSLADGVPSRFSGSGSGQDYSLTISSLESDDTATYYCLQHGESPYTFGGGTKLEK was 0.0317 nM

Origin of values: patent US20250361295A1
